Where do these numbers come from? They come from ChEMBL document CHEMBL5724914.

Experimental conditions: human gut metagenome, 24 h, 2 µM; note: call rule not given here
Experimental readout: Bacterial Biotransformation

Compound	Reported
OCCOCCN1CCN(C2=Nc3ccccc3Sc3ccccc32)CC1	Compound metabolized
C=CCc1ccccc1OCC(O)CNC(C)C (configuration not stated)	Compound NOT metabolized
CN(C)C(=O)C(CCN1CCC(O)(c2ccc(Cl)cc2)CC1)(c1ccccc1)c1ccccc1 [LOPERAMIDE]	Compound metabolized
O=c1n(CCCN2CCN(c3cccc(Cl)c3)CC2)nc2ccccn12	Compound NOT metabolized
O=C1[C@H](CC[C@H](O)c2ccc(F)cc2)[C@@H](c2ccc(O)cc2)N1c1ccc(F)cc1	Compound NOT metabolized
CC(=O)OCC(=O)[C@@]12N=C(C)O[C@@H]1C[C@H]1[C@@H]3CCC4=CC(=O)C=C[C@]4(C)[C@H]3[C@@H](O)C[C@@]12C	Compound metabolized
Cc1ccnc2c1NC(=O)c1cccnc1N2C1CC1	Compound NOT metabolized
COc1cc2nc(N3CCN(C(=O)c4ccco4)CC3)nc(N)c2cc1OC	Compound NOT metabolized
COc1ccccc1OCC(O)CN1CCN(CC(=O)Nc2c(C)cccc2C)CC1 (configuration not stated)	Compound NOT metabolized
CC(=O)OCC(=O)[C@@]1(O)[C@@H](C)C[C@H]2[C@@H]3CCC4=CC(=O)C=C[C@]4(C)[C@@]3(F)[C@@H](O)C[C@@]21C [BETAMETHASONE ACETATE]	Compound metabolized
COC(=O)Nc1nc2ccc(C(=O)c3ccccc3)cc2[nH]1	Compound metabolized
COc1ccccc1OCC(O)COC(N)=O (configuration not stated)	Compound NOT metabolized
COC1=CC(=O)C[C@@H](C)[C@]12Oc1c(Cl)c(OC)cc(OC)c1C2=O	Compound metabolized
CCOC(=O)[C@H](CCc1ccccc1)N[C@H]1CCc2ccccc2N(CC(=O)O)C1=O	Compound metabolized
Cc1cn([C@H]2C[C@H](N=[N+]=[N-])[C@@H](CO)O2)c(=O)[nH]c1=O	Compound NOT metabolized
O=P(O)(O)O.c1ccc(CN(CC2=NCCN2)c2ccccc2)cc1 [ANTAZOLINE PHOSPHATE]	Compound NOT metabolized
C[C@@H]1C[C@H]2[C@@H]3CCC4=CC(=O)C=C[C@]4(C)[C@@]3(F)[C@@H](O)C[C@]2(C)[C@@]1(O)C(=O)CO	Compound NOT metabolized
CC(=O)CC(c1ccccc1)c1c(O)c2ccccc2oc1=O (configuration not stated)	Compound metabolized
CN1CCOC(c2ccccc2)c2ccccc2C1 (configuration not stated)	Compound NOT metabolized
Cc1nc2n(c(=O)c1CCN1CCC(c3noc4cc(F)ccc34)CC1)CCCC2O (configuration not stated)	Compound metabolized
COc1ccc2c(c1OC)C(=O)O[C@@H]2[C@H]1c2c(cc3c(c2OC)OCO3)CCN1C	Compound metabolized
CCCCC1=NC2(CCCC2)C(=O)N1Cc1ccc(-c2ccccc2-c2nnn[nH]2)cc1	Compound metabolized
COc1ccccc1N1CCN(CC(O)COc2cccc3ccccc23)CC1 (configuration not stated)	Compound NOT metabolized
CN1CCN(C(=O)O[C@H]2c3nccnc3C(=O)N2c2ccc(Cl)cn2)CC1	Compound NOT metabolized
O=C(NCc1ccccc1)OCCO [BURAMATE]	Compound NOT metabolized
c1ccc([C@H]2CN3CCSC3=N2)cc1	Compound metabolized
CC(C)NCC(O)COc1ccc(CCOCC2CC2)cc1 (configuration not stated)	Compound NOT metabolized

* * *

Experiment description: The drug is tested on Z-017 corresponding to mouse gut metagenome with ENA study accession number: PRJEB37062 and ENA sample accession number: ERS12561816 for biotransformation under anaerobic condition. The drug concentrations were measured over 9 timepoints collected between 0 and 24 hours of incubation by liquid-chromatography-coupled mass spectrometry (LC–MS)
Experimental conditions: 2 µM
Experimental readout: Bacterial Biotransformation

Molecule	Reported
c1ccc([C@H]2CN3CCSC3=N2)cc1	Compound NOT metabolized
CNC(=C[N+](=O)[O-])NCCSCc1ccc(CN(C)C)o1	Compound metabolized
Nc1c2c(nc3ccccc13)CCCC2	Compound NOT metabolized
CCN(CC)CCNC(C(=O)OCCC(C)C)c1ccccc1.Cl.Cl (centres undefined)	Compound NOT metabolized
COc1ccccc1N1CCN(CC(O)COc2cccc3ccccc23)CC1 (centres undefined)	Compound NOT metabolized
NC(=O)N1c2ccccc2CC(=O)c2ccccc21 [OXCARBAZEPINE]	Compound NOT metabolized
Cc1nc2n(c(=O)c1CCN1CCC(c3noc4cc(F)ccc34)CC1)CCCC2	Compound metabolized
CCC(COC(=O)c1cc(OC)c(OC)c(OC)c1)(c1ccccc1)N(C)C.O=C(O)/C=C\C(=O)O (centres undefined)	Compound NOT metabolized
CC(C)c1nc(CN(C)C(=O)N[C@H](C(=O)N[C@@H](Cc2ccccc2)C[C@H](O)[C@H](Cc2ccccc2)NC(=O)OCc2cncs2)C(C)C)cs1	Compound NOT metabolized
CC[C@H](C)C(=O)O[C@H]1C[C@@H](C)C=C2C=C[C@H](C)[C@H](CC[C@@H]3C[C@@H](O)CC(=O)O3)[C@H]21	Compound metabolized
CCN(CC)CCOC(=O)C(Cc1cccc2ccccc12)CC1CCCO1.O=C(O)C(=O)O (centres undefined) [NAFRONYL OXALATE]	Compound NOT metabolized
CC(O)(CS(=O)(=O)c1ccc(F)cc1)C(=O)Nc1ccc(C#N)c(C(F)(F)F)c1 (centres undefined) [BICALUTAMIDE]	Compound NOT metabolized
NC12CC3CC(CC(C3)C1)C2	Compound NOT metabolized
OCCOCCN1CCN(C2=Nc3ccccc3Sc3ccccc32)CC1	Compound NOT metabolized
OC(Cn1cncn1)(Cn1cncn1)c1ccc(F)cc1F	Compound NOT metabolized
CC(C(=O)O)c1ccc2c(c1)Cc1cccnc1O2 (centres undefined)	Compound NOT metabolized
O=c1[nH]c2ccccc2n1CCCN1CCC(n2c(=O)[nH]c3cc(Cl)ccc32)CC1	Compound NOT metabolized
COc1ccc2c(c1OC)C(=O)O[C@@H]2[C@H]1c2c(cc3c(c2OC)OCO3)CCN1C	Compound NOT metabolized
CCCc1nc2c(C)cc(-c3nc4ccccc4n3C)cc2n1Cc1ccc(-c2ccccc2C(=O)O)cc1	Compound metabolized

* * *

Experimental conditions: human gut metagenome, 24 h, 2 µM

Molecule	Bacterial Biotransformation
CN(C)CC(c1ccc(O)cc1)C1(O)CCCCC1.O=C(O)CCC(=O)O (stereo not given) [DESVENLAFAXINE SUCCINATE]	Compound NOT metabolized
CCN(CC)CCOC(=O)C(Cc1cccc2ccccc12)CC1CCCO1.O=C(O)C(=O)O (stereo not given) [NAFRONYL OXALATE]	Compound metabolized
NS(=O)(=O)c1cc2c(cc1Cl)N=C(CSCc1ccccc1)NS2(=O)=O [BENZTHIAZIDE]	Compound NOT metabolized
CS(=O)(=O)O.O.O.O.O=C1Cc2cc(CCN3CCN(c4nsc5ccccc45)CC3)c(Cl)cc2N1 [ZIPRASIDONE MESYLATE]	Compound NOT metabolized
CC(C)OC(=O)C(C)(C)Oc1ccc(C(=O)c2ccc(Cl)cc2)cc1 [FENOFIBRATE]	Compound NOT metabolized
CCCCC(=O)N(Cc1ccc(-c2ccccc2-c2nnn[nH]2)cc1)[C@H](C(=O)O)C(C)C	Compound metabolized
Cc1nc(-c2ccc(OCC(C)C)c(C#N)c2)sc1C(=O)O	Compound metabolized
O=C(O)COCCN1CCN(C(c2ccccc2)c2ccc(Cl)cc2)CC1 (stereo not given)	Compound metabolized
C[C@@H]1CC[C@H]2[C@@H](C)C(=O)O[C@@H]3O[C@@]4(C)CC[C@@H]1[C@]32OO4	Compound metabolized
COc1ccc2[nH]c([S+]([O-])Cc3ncc(C)c(OC)c3C)nc2c1 (stereo not given)	Compound metabolized

* * *

Experiment description: The drug is tested on Z-024 corresponding to pig gut metagenome with ENA study accession number: PRJEB37062 and ENA sample accession number: ERS12561823 for biotransformation under anaerobic condition. The drug concentrations were measured over 9 timepoints collected between 0 and 24 hours of incubation by liquid-chromatography-coupled mass spectrometry (LC–MS)
Experimental conditions: 2 µM
Experimental readout: Bacterial Biotransformation

Compound	Reported
CN1C(C(=O)Nc2ccccn2)=C(O)c2sccc2S1(=O)=O [TENOXICAM]	Compound metabolized
CCOC(=O)[C@H](CCc1ccccc1)N[C@H]1CCc2ccccc2N(CC(=O)O)C1=O [BENAZEPRIL]	Compound metabolized
O=P(O)(O)O.c1ccc(CN(CC2=NCCN2)c2ccccc2)cc1 [ANTAZOLINE PHOSPHATE]	Compound metabolized
CC(C)NCC(O)COc1ccc(COCCOC(C)C)cc1.CC(C)NCC(O)COc1ccc(COCCOC(C)C)cc1.O=C(O)/C=C/C(=O)O (stereo unspecified) [BISOPROLOL FUMARATE]	Compound metabolized
O=C(CCCN1CCC(O)(c2ccc(Cl)cc2)CC1)c1ccc(F)cc1 [HALOPERIDOL]	Compound NOT metabolized
COc1ccc2[nH]c([S+]([O-])Cc3ncc(C)c(OC)c3C)nc2n1 (stereo unspecified) [TENATOPRAZOLE]	Compound NOT metabolized
